# System: OVCAR4 cells
# measurement-protocol: On-cell western
# Format: cell-based, human
readout-label: binding to OVCAR4 cells

molecule | observed-value
ZY0EPQ-E02: anti-B7-H4 antibody clone, VH SEQ ID NO: 31, VL SEQ ID NO: 32 (antibody, V domains shown) VH: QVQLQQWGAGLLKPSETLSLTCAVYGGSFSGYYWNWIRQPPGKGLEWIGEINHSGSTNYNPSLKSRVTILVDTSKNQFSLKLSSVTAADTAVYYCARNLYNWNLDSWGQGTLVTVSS VL: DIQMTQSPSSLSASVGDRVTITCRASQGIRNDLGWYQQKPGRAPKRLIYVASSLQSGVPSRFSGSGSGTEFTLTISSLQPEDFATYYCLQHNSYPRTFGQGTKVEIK | bind
ZY0EQD-E02: anti-B7-H4 antibody clone, VH SEQ ID NO: 33, VL SEQ ID NO: 34 (antibody, V domains shown) VH: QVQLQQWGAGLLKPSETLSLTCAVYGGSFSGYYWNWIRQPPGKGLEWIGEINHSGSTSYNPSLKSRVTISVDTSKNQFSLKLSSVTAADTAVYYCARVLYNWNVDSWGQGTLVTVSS VL: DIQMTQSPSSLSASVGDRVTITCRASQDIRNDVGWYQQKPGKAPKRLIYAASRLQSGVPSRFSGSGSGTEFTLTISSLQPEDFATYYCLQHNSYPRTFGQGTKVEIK | bind
ZY0E05-E07: anti-B7-H4 antibody clone, VH SEQ ID NO: 37, VL SEQ ID NO: 38 (antibody, V domains shown) VH: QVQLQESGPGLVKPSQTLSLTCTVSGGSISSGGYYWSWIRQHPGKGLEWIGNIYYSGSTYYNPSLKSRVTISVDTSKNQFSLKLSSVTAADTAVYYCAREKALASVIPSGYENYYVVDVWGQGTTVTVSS VL: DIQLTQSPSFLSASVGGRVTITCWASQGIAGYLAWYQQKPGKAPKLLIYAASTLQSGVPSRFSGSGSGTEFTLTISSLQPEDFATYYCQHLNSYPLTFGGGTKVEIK | bind
